molecular target: 17β-hydroxysteroid dehydrogenase type 1 (17β-HSD type 1) (Homo sapiens); construct: expressed in transfected cells; host or cells: MCF-7; experiment: Inhibition of 17β-HSD type 1 in MCF-7 cells stably expressing the isoenzyme (tritium labeled estrone conversion, HPLC); type: cell-based; settings: MCF7; 10 μM test compound; MCF-7 cells expressing 17β-HSD type 1; 2 nM tritium labeled estrone; read-out: % Inhibition HSD1 10 μM
Sequence (P14061 whole entry): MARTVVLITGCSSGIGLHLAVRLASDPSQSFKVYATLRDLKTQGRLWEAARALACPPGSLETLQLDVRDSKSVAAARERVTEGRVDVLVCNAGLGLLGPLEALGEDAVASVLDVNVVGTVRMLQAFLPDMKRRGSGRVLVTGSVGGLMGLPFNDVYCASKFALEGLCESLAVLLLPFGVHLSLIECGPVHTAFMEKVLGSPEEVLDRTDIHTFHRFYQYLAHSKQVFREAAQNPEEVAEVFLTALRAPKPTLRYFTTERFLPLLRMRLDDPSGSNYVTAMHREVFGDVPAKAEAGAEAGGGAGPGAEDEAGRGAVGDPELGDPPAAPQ
quantity: inhibition at 10 µM (%)

O=c1c2c(nc(-c3cccs3)n1CCO)sc1c(O)c(Br)ccc12 [No. 149] :: 18.3
COc1ccc(-c2nc3sc4c(c3c(=O)n2Cc2ccccc2)CCC(C=O)=C4Cl)cc1 [No. 14] :: 29.7

(I) COc1cccc(-c2nc3sc4c(c3c(=O)n2Cc2ccccc2)CCC(Br)C4=O)c1 (centres unmarked) [No. 80]
(II) COc1cc(-c2nc3sc4c(O)cc(C)cc4c3c(=O)n2Cc2ccccc2)c(Br)c(OC)c1OC [No. 690]
IN: Between I and II , whose recorded inhibition at 10 µM is greater? Refer to your chosen item by its label in the answer.
OUT: I
(I: 39.3%, II: 19.2%)

----------
molecular target: 17β-hydroxysteroid dehydrogenase type 2 (17β-HSD type 2) (Homo sapiens, UniProt P37059); construct: expressed in transfected cells; host or cells: MCF-7; experiment: Inhibition of 17β-HSD type 2 in MCF-7 cells stably expressing the isoenzyme (tritium labeled estradiol conversion, HPLC); format: cell-based; details: MCF7; 10 μM test compound; MCF-7 cells expressing 17β-HSD type 2; 2 nM tritium labeled estradiol; read-out: % Inhibition HSD2 10 μM
quantity: inhibition at 10 µM (%)

Would you please look over these solved cases?
COc1cc(-c2nc3sc4c(c3c(=O)n2CC(C)C)C(Br)CCC4=O)cc(OC)c1OC (centres unmarked) [No. 135] :: 34.6
O=c1c2c3c(sc2nc(CO)n1-c1ccccc1)CCCC3 [No. 38] :: 33.4

(A) COCCn1c(-c2cccs2)nc2sc3c(O)c(Br)ccc3c2c1=O [No. 148]
(B) COc1ccc(-c2nc3sc4cc(C=O)ccc4c3c(=O)n2Cc2ccccc2)cc1 [No. 17]
(C) CCCCn1c(-c2ccccc2OC)nc2sc3c(O)cccc3c2c1=O [No. 633]
IN: Place the items in sequence of falling inhibition at 10 µM. When ranking, write the labels in the order the request describes.
OUT: C, A, B
(C: 64.6%, A: 42%, B: 20.9%)

----------
biological target: 17β-hydroxysteroid dehydrogenase type 1 (17β-HSD type 1) (Homo sapiens); construct: expressed in transfected cells; host or cells: MCF-7; assay: Inhibition of 17β-HSD type 1 in MCF-7 cells stably expressing the isoenzyme (tritium labeled estrone conversion, HPLC); assay type: cell-based; details: MCF7; 1 μM test compound; MCF-7 cells expressing 17β-HSD type 1; 2 nM tritium labeled estrone; read-out: % Inhibition HSD1 1 μM
quantity: inhibition at 1 µM (%)

Recorded results for 2 compounds are shown here.
CCCCn1c(-c2cc(OC)c(OC)c(OC)c2)nc2sc3c(c2c1=O)CCC(Br)C3=O (centres unmarked) [No. 87] :: 26.8
COc1cc(-c2nc3sc4c(O)cccc4c3c(=O)n2CC(C)C)c(Br)c(OC)c1OC [No. 117] :: 39.3

(1) O=C1CCCc2c1sc1nc(-c3cccs3)n(Cc3ccccc3)c(=O)c21 [No. 62]
(2) COc1cc(-c2nc3sc4c(O)cccc4c3c(=O)n2Cc2ccccc2)cc(OC)c1OC [No. 53]
(3) COc1ccc(-c2nc3sc4c(Oc5ccccc5)c(C)ccc4c3c(=O)n2Cc2ccccc2)cc1 [No. 21]
IN: hey, can you rank those compounds up there by inhibition at 1 µM? biggest number first please Ranked list of labels, please, in the requested order.
OUT: 2, 1, 3

----------
biological target: 17β-hydroxysteroid dehydrogenase type 2 (17β-HSD type 2) (Homo sapiens); construct: expressed in transfected cells; host or cells: MCF-7; test: Inhibition of 17β-HSD type 2 in MCF-7 cells stably expressing the isoenzyme (tritium labeled estradiol conversion, HPLC); type: cell-based; conditions: MCF7; 10 μM test compound; MCF-7 cells expressing 17β-HSD type 2; 2 nM tritium labeled estradiol; read-out: % Inhibition HSD2 10 μM
quantity: inhibition at 10 µM (%)

(a) COc1cc(-c2nc3sc4c(OC)cccc4c3c(=O)n2Cc2ccccc2)cc(OC)c1OC [No. 138]
(b) COCc1nc2sc3c(c2c(=O)n1Cc1ccccc1)CCCC3=O [No. 31]
IN: Which record would sort first by descending inhibition at 10 µM, a or b ? Answer format: the label of the selected item.
OUT: a

(A) O=C1c2sc3nc(-c4ccccc4)n(Cc4ccccc4)c(=O)c3c2CCC1Br (stereo not drawn) [No. 58]
(B) COc1cc(-c2nc3sc4c(O)cccc4c3c(=O)n2Cc2ccccc2)c(Cl)c(OC)c1OC [No. 124]
IN: Which entry has a larger number for inhibition at 10 µM, A or B ? Refer to your chosen item by its label in the answer.
OUT: A

(1) COc1cc(-c2nc3sc4c(c3c(=O)n2CC(C)C)CCC(Br)C4=O)cc(OC)c1OC (stereo not drawn) [No. 115]
(2) CC(=O)Oc1c(Br)ccc2c1sc1nc(-c3ccccc3)n(Cc3ccccc3)c(=O)c12 [No. 93]
IN: Recorded inhibition at 10 µM values differ for 1 and 2 ; which one is higher? Give the chosen item's label as your response.
OUT: 2

(a) O=c1c2c3c(sc2nc(-c2cc(O)c(O)c(O)c2)n1-c1ccccc1)CCCC3 [No. 43]
(b) COc1cc(-c2nc3sc4c(O)ccc(C)c4c3c(=O)n2Cc2ccccc2)c(Br)c(OC)c1OC [No. 686]
IN: // returns a or b , whichever has the lower inhibition at 10 µM Write down the label attached to your selection.
OUT: b

----------
molecular target: 17β-hydroxysteroid dehydrogenase type 2 (17β-HSD type 2) (Homo sapiens); construct: expressed in transfected cells; host or cells: MCF-7; test: Inhibition of 17β-HSD type 2 in MCF-7 cells stably expressing the isoenzyme (tritium labeled estradiol conversion, HPLC); format: cell-based; conditions: MCF7; 10 μM test compound; MCF-7 cells expressing 17β-HSD type 2; 2 nM tritium labeled estradiol; read-out: % Inhibition HSD2 10 μM
quantity: inhibition at 10 µM (%)

Solved entries (count: 2):
COc1cccc(-c2nc3sc4c(c3c(=O)n2Cc2ccccc2)CCC(Br)C4=O)c1 (centres unmarked) :: 51
COc1cc(-c2nc3sc4c(c3c(=O)n2Cc2ccccc2)CCCC4O)cc(OC)c1OC (centres unmarked) :: 25.7

(a) COc1cc(-c2nc3sc4c(c3c(=O)n2Cc2cccnc2)CCCC4)cc(OC)c1OC
(b) COc1cc(-c2nc3sc4c(O)cccc4c3c(=O)n2Cc2ccccc2)cc(OC)c1OC
(c) CCCCn1c(-c2cccs2)nc2sc3c(c2c1=O)CCCC3
IN: Let's sort these by inhibition at 10 µM, smallest first. Go ahead? // ordering of labels required in reply
OUT: c, a, b

----------
Molecular target: 17β-hydroxysteroid dehydrogenase type 2 (17β-HSD type 2) (Homo sapiens)
Construct: expressed in transfected cells; host or cells: MCF-7
Sequence (P37059 1-387): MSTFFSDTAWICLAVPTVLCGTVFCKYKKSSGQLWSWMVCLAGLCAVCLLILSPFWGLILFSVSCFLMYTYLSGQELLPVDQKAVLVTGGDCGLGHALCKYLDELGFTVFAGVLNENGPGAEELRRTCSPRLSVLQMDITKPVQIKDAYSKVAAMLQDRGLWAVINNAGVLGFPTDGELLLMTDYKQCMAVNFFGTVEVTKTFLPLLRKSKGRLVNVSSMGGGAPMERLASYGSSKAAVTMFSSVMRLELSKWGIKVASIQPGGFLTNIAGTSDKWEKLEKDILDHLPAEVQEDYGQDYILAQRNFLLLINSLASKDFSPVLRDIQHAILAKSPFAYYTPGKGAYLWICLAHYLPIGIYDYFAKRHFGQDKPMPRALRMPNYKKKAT
Test: Inhibition of 17β-HSD type 2 in MCF-7 cells stably expressing the isoenzyme (tritium labeled estradiol conversion, HPLC)
Type: cell-based
Conditions: MCF7; 1 μM test compound; MCF-7 cells expressing 17β-HSD type 2; 2 nM tritium labeled estradiol; read-out: % Inhibition HSD2 1 μM
quantity: inhibition at 1 µM (%)

O=C(OCCn1c(-c2cccs2)nc2sc3c(c2c1=O)CCCC3)c1cccs1 :: 10.8
COc1c(O)cc(-c2nc3sc4c(c3c(=O)n2-c2ccccc2)CCCC4)cc1O :: -1.9
CCCc1nc2sc3c(O)cccc3c2c(=O)n1Cc1cc(Br)ccc1OC :: 46.6
COc1cc(-c2nc3sc4c(O)c(Br)ccc4c3c(=O)n2Cc2ccccc2)c(Br)c(OC)c1OC :: 0.1

(a) COc1cc(-c2nc3sc4c(c3c(=O)n2CC2CCCO2)CCCC4=O)cc(OC)c1OC (stereo not drawn)
(b) O=c1c2c(nc(-c3cccs3)n1Cc1ccccc1)sc1c(O)cccc12
IN: Please indicate which has the smaller reported inhibition at 1 µM: a , or b . Returns: label corresponding to the selected item.
OUT: a

(a) CCCc1nc2sc3c(O)cccc3c2c(=O)n1Cc1cc(Br)ccc1O
(b) O=C(OCCn1c(-c2cccs2)nc2sc3c(c2c1=O)CCC(Br)(Br)C3=O)c1cccs1
IN: In the pair a and b , the larger recorded inhibition at 1 µM belongs to which? Write down the label attached to your selection.
OUT: a
